tested on: SR leukemia; assay: NCI tumour cell line growth inhibition, 48 h
MEASURE NAME: TGI

- MOLECULE: "COc1cccc(C(NC2=NCCC=N2)c2cc3c(cc2O)OCO3)c1O (stereo unspecified)"
  RESULT: "34.9 µM"
- MOLECULE: "c1ccc(CN2COc3c(ccc4c5c(ccc34)CN(Cc3ccccc3)CO5)C2)cc1"
  RESULT: "> 100 µM"
- MOLECULE: "COc1cc(C(=O)C2CC3(CCC2(O)c2cc(OC)c(OC)c(OC)c2)CC(=O)Nc2ccccc2C3=O)cc(OC)c1OC (stereo unspecified)"
  RESULT: "> 100 µM"
- MOLECULE: "[Cl][Cu][Cl]"
  RESULT: "> 10 µM"
- MOLECULE: "OC1COC(OCc2ccccc2)C(O)C1O (stereo unspecified)"
  RESULT: "> 100 µM"
- MOLECULE: "NC(=O)CC(N)c1nn[nH]n1 (stereo unspecified)"
  RESULT: "> 100 µM"
